Below: a set of entries, each annotated with reported inhibition.
molecular target: Autotaxin (Homo sapiens); test: Inhibition of human recombinant autotaxin expressed in insect Sf9 cells using FS-3 as substrate at 1 uM preincubated for 10 mins prior substrate addition measured up to 60 mins by FRET-based analysis
Give a bare numeral; the unit % is implied.

compound	inhibition, %
CCCCCCCCCCCC(=O)OCC(COP(=O)(O)O)OC (stereo unspecified)	45.5
CCCCCCCCCCCCCCCCCC(=O)OC[C@@H](O)CC(Br)P(=O)(O)O (stereo partly specified)	86.1
CCCCCCCCCCCCCCCCCC(=O)OCC(COP(=O)(O)O)OC (stereo unspecified)	49.7
CCCCCCCCCCCCCCCC(=O)OCC(COP(=O)(O)O)OC (stereo unspecified)	74.5

Under Autotaxin (Homo sapiens): inhibition value of CCCCCCCCCCCCCCCC(=O)OCC(COP(=O)(O)S)OC (stereo unspecified) ?
64.7

Under Autotaxin (Homo sapiens): inhibition value of CCCCCCCCCCCCCC(=O)OCC(COP(=O)(O)S)OC (stereo unspecified) ?
62.3

Under Autotaxin (Homo sapiens): inhibition value of CCCCCCCC/C=C\CCCCCCCC(=O)OCC(COP(=O)(O)O)OC (stereo unspecified) ?
81.3

Under Autotaxin (Homo sapiens): inhibition value of CCCCCCCC/C=C\CCCCCCCC(=O)OCC(COP(=O)(O)S)OC (stereo unspecified) ?
77.8

Under Autotaxin (Homo sapiens): inhibition value of CCCCCCCCCCCCCCCCCC(=O)OCC(COP(=O)(O)S)OC (stereo unspecified) ?
35.5

Under Autotaxin (Homo sapiens): inhibition value of CCCCCCCCCCCCCC(=O)OCC(COP(=O)(O)O)OC (stereo unspecified) ?
57.7

Under Autotaxin (Homo sapiens): inhibition value of CCCCCCCCCCCC(=O)OCC(COP(=O)(O)S)OC (stereo unspecified) ?
36.7

###

target: Autotaxin (Homo sapiens); test: Inhibition of human recombinant autotaxin expressed in insect Sf9 cells using FS-3 as substrate preincubated for 10 mins prior substrate addition measured up to 60 mins by FRET-based analysis
pIC50: −log10 of the molar value.
Binary call on pIC50: satisfied from 6 upward, not satisfied beneath that.

Some solved cases for reference:
compound	label
CCCCCCCCCCCCCC(=O)OCC(COP(=O)(O)S)OC (stereo unspecified)	satisfied
CCCCCCCC/C=C\CCCCCCCC(=O)OCC(COP(=O)(O)O)OC (stereo unspecified)	satisfied
CCCCCCCC/C=C\CCCCCCCC(=O)OCC(COP(=O)(O)S)OC (stereo unspecified)	satisfied

Alright, here's another compound for you.
Reported pIC50 at or above 6? CCCCCCCCCCCCCCCC(=O)OCC(COP(=O)(O)S)OC (stereo unspecified)
satisfied

###

target: Autotaxin (Homo sapiens, UniProt Q13822); experiment: Inhibition of human recombinant autotaxin expressed in insect Sf9 cells using FS-3 as substrate preincubated for 10 mins prior substrate addition measured up to 60 mins by FRET-based analysis
recorded.endpoint: log10 of IC50 (log10 of the value in nM)
Recorded IC50 (log10, nM)

// worked examples, log10 of IC50 included
compound	log10 of IC50
CCCCCCCCCCCC(=O)OCC(COP(=O)(O)O)OC (configuration not stated)	3.08
CCCCCCCCCCCCCCCCCC(=O)OCC(COP(=O)(O)O)OC (configuration not stated)	3.00
CCCCCCCCCCCC(=O)OCC(COP(=O)(O)S)OC (configuration not stated)	3.38
CCCCCCCCCCCCCCCC(=O)OCC(COP(=O)(O)O)OC (configuration not stated)	2.56
CCCCCCCCCCCCCCCCCC(=O)OC[C@@H](O)CC(Br)P(=O)(O)O (some centres not stated)	2.23
CCCCCCCCCCCCCCCCCC(=O)OCC(COP(=O)(O)S)OC (configuration not stated)	3.38

Kindly review the next compound as well.
Under Autotaxin (Homo sapiens, UniProt Q13822): log10 of IC50 value of CCCCCCCCCCCCCC(=O)OCC(COP(=O)(O)O)OC (configuration not stated) ?
2.85
